assay: Octanol-phosphate buffer partition coefficient, log D of the compound at pH 7.4 after 30 mins by HPLC analysis; assay type: physicochemical
quantity.kind: logD at 0.5 h

molecule | logD at 0.5 h
CCOC(=O)COC(=O)NCCCC(C)Nc1cc(OC)cc2cccnc12 (stereo not drawn) | 3.09
COc1cc(NC(C)CCCNC(=O)OCC(F)(F)F)c2ncccc2c1 (stereo not drawn) | 3.41
COc1cc(NC(C)CCCNC(=O)Oc2ccc(Cl)cc2)c2ncccc2c1 (stereo not drawn) | 4.44
COc1ccc(OC(=O)NCCCC(C)Nc2cc(OC)cc3cccnc23)cc1 (stereo not drawn) | 4.23
COc1cc(NC(C)CCCNC(=O)Oc2ccccc2)c2ncccc2c1 (stereo not drawn) | 4.27
CCOC(=O)NCCCC(C)Nc1cc(OC)cc2cccnc12 (stereo not drawn) | 3.02
CCCCCCOC(=O)NCCCC(C)Nc1cc(OC)cc2cccnc12 (stereo not drawn) | 4.64
COc1cc(NC(C)CCCNC(=O)Oc2ccc([N+](=O)[O-])cc2)c2ncccc2c1 (stereo not drawn) | 4.23

----------
tested on: Liver; test: Prodrug activation in rat liver homogenate assessed as rate constant by HPLC analysis; assay type: tissue-based; details: tissue homogenate
quantity.kind: Drug metabolism (×10⁻² /hr)

Worked examples, 4 molecules total:
molecule | unit.name | Drug metabolism
CCCCCCOC(=O)NCCCC(C)Nc1cc(OC)cc2cccnc12 (stereo unspecified) | ×10⁻² /hr | 6.63
CCOC(=O)NCCCC(C)Nc1cc(OC)cc2cccnc12 (stereo unspecified) | ×10⁻² /hr | 4.56
COc1cc(NC(C)CCCNC(=O)Oc2ccc(Cl)cc2)c2ncccc2c1 (stereo unspecified) | ×10⁻² /hr | 5.85
COc1ccc(OC(=O)NCCCC(C)Nc2cc(OC)cc3cccnc23)cc1 (stereo unspecified) | ×10⁻² /hr | 6.7

[1] COc1cc(NC(C)CCCNC(=O)OCC(F)(F)F)c2ncccc2c1 (stereo unspecified)
[2] COc1cc(NC(C)CCCNC(=O)Oc2ccccc2)c2ncccc2c1 (stereo unspecified)
Task: Smaller Drug metabolism value, 1 vs 2 ? Kindly state the label of the option you pick.
Result: 1

----------
test system: Plasma; assay: Half life for prodrug activation in 50% human plasma by HPLC analysis; assay type: cell-free
quantity.kind: t1/2 (h)

molecule | assay.value
COc1cc(NC(C)CCCNC(=O)Oc2ccccc2)c2ncccc2c1 (centres undefined) | 3.62
COc1cc(NC(C)CCCNC(=O)Oc2ccc(Cl)cc2)c2ncccc2c1 (centres undefined) | 0.638

[I] COc1ccc(OC(=O)NCCCC(C)Nc2cc(OC)cc3cccnc23)cc1 (centres undefined)
[II] COc1cc(NC(C)CCCNC(=O)Oc2ccc([N+](=O)[O-])cc2)c2ncccc2c1 (centres undefined)
Task: Smaller t1/2 value, I vs II ? Kindly state the label of the option you pick.
Result: II
(II: 0.00267 h, I: 7.78 h)

----------
assay: Dissociation constant, pKa of the compound; assay type: physicochemical
quantity.kind: pKa

compound | pKa
COc1ccc(OC(=O)NCCCC(C)Nc2cc(OC)cc3cccnc23)cc1 (configuration not stated) | 10.2
COc1cc(NC(C)CCCNC(=O)Oc2ccc([N+](=O)[O-])cc2)c2ncccc2c1 (configuration not stated) | 7.14
COc1cc(NC(C)CCCNC(=O)OCC(F)(F)F)c2ncccc2c1 (configuration not stated) | 12.4
COc1cc(NC(C)CCCNC(=O)Oc2ccccc2)c2ncccc2c1 (configuration not stated) | 9.95
CCOC(=O)COC(=O)NCCCC(C)Nc1cc(OC)cc2cccnc12 (configuration not stated) | 12.9

[I] CCOC(=O)NCCCC(C)Nc1cc(OC)cc2cccnc12 (configuration not stated)
[II] COc1cc(NC(C)CCCNC(=O)Oc2ccc(Cl)cc2)c2ncccc2c1 (configuration not stated)
Task: Which value of pKa is greater, the one for I or the one for II ? Kindly state the label of the option you pick.
Result: I
